Molecular target: T1, cynomolgus monkey GPC3 on SK-HEP-1-cmGPC3 cells (cynomolgus monkey, UniProt A0A2K5VK50 24-553)
T1 construct: whole, on cells
Test: flow cytometry on SK-HEP-1-cmGPC3 cells, PE anti-mouse IgG Fc
Outcome label depends on Positive population, % relative to 10%: at/above gives y, below gives n.

LAb19305 (antibody, V domains shown, Mouse monoclonal antibody purified from hybridoma supernatant) VH: QVQLQQSGAELVRPGASVTLSCKASGYTFTAYEMHWVKQTPVYGLEWIGGIDPETGNTAYSQNFKGKATLTADKSSSTAYMEVRSLTSEDSAVYYCSRYYSFAYWGQGTLVTVSA VL: DVLMTQTPLSLPVSLGDQASISCRSSQTIVHSNGNTYLEWYLQKPGQSPKLLIYKVSNRFSGVPDRFSGSGSGTDFTLKISRVEAEDLGVYYCFQVSHVPYTFGGGTKLEIK    y
LAb19310 (antibody, V domains shown, Mouse monoclonal antibody purified from hybridoma supernatant) VH: EVQLQQSGPELVKPGPSLKISCKASGYSFTVSPMTWVKQSHGKNLEWIGLIHPYNGDTTYNQKFKGKATLTVDKSSSTAYMELLSLTSEDSAVYYCARWGNYYPYAMDYWGQGTSVTVSS VL: DIVMTQSQKFMSTSVGDRVSITCKASQNVRSTVAWYQQKPGQSPKALIYLTSNRHTGVPDRFTGSGSGTDFTLTISNVQSEDLADYFCLQHWNYPYTFGGGTKLEIK    y
LAb19304 (antibody, V domains shown, Mouse monoclonal antibody purified from hybridoma supernatant) VH: QVQLQQSGAELVRPGASVTLSCKASGYTFTAYEMHWVKQTPVHGLEWIGGIDPETGNTAYSQKFKGKATLTADKSSSTAYMEVRSLTSEDSAVYYCSRYYSFAYWGQGTLVTVSA VL: DVLMTQTPLSLPVSLGDQASISCRSSQTIVHSNGNTYLEWYLQKPGQSPKLLIYKVSNRFSGVPDRFSGSGSGTDFTLKISRVEAEDLGVYYCFQVSHVPYTFGGGTKLEIK    y
LAb19309 (antibody, V domains shown, Mouse monoclonal antibody purified from hybridoma supernatant) VH: QVQLQQSGAELVRPGASVTLSCKASGYTFTDYEMHWVKQTPVHGLEWIGGIDPETGNTAYSQKFKGKATLTADKSSSTAYMEVRSLTSEDSAVYYCTRYYSFAYWGQGTLVTVSA VL: DVLMTQTPLSLPVNLGDQASISCRSSQTIVHSNGNTYLEWYLQKPGQSPKLLIYKVSNRFSGVPDRFSGSGSGTDFTLRISRVEAEDLGVYYCFQVSHVPYTFGGGTKLEIK    y

stdin: Test whether the binder LAb19308 (antibody, V domains shown, Mouse monoclonal antibody purified from hybridoma supernatant) VH: EVQLVESGGGLVKPGGSLKLSCAASGFAFITYGMSWVRQTPEKRLEWVAYISSGGANTYYPDSVKGRFTISRDNAKNTLYLQMSSLKSEDTAMYYCASLSTLVRGWFAYWGQGTLVTVSA VL: DVVMTQTPLSLPVSLGDQASISCRSSQSLVHSNGNTYLHWYLQKPGQSPKLLIYKVSNRFSGVPDRFSGSGSGTDFTLKISRVEAEDLGVYFCSQSTHVPYTFGGGTKLEIK records Positive population, % of 10% or higher.
stdout: n

stdin: Test whether the binder LAb19307 (antibody, V domains shown, Mouse monoclonal antibody purified from hybridoma supernatant) VH: EVQLVESGGDLVKPGGSLKLSCAASGFAFGTYDMSWVRQTPEKRLEWVAYISSGGNSPYYPQTVKGRFTISRDNAKNTLYLQMSSLKSEDTAMYYCARQNIARRGAMDFWGQGASVTVSS VL: DVVLTQSPLSQPVSLGDQASISCTSSQSLLHSNGNTYLHWYLQKPGQSPKLLIYKVSNRFSGVPDRFSGSGSGTDFTLKISRVEAEDLGVYFCSQSTHVPPTFGGGTKLEIK records Positive population, % of 10% or higher.
stdout: y

stdin: Test whether the binder LAb19306 (antibody, V domains shown, Mouse monoclonal antibody purified from hybridoma supernatant) VH: EVQLVESGGGLVKPGGSLKLSCAASGFAFSTYDMSWVRQTPERRLEWVAYISSGGATTYYPDSVKGRFTISRDNAKNTLYLQMSSLKSEDTAMYYCARLSLMIRGWFAYWGQGTLVTVSA VL: DVVMTQTPLSLPVSLGDQASISCRSSQSLVHSNGNTYLHWYLQKPGQSPKLLIYKVSNRFSGVPDRFSGSGSGTDFTLKISRVEAEDLGVYFCSQSTHVPYTFGGGTKLEIK records Positive population, % of 10% or higher.
stdout: n

stdin: Test whether the binder LAb19302 (antibody, V domains shown, Mouse monoclonal antibody purified from hybridoma supernatant) VH: AVQLVESGGGLVRPGGSLKLSCAASGFAFSTYGMSWVRQTPETRLEWVAYISSGGATTYYPDSVKGRFTISRDNAKNTLYLQMSSLKSEDTAMYYCASLSIMIRGWFAYWGQGTLVTVSA VL: DVVMTQTPLSLPVSLGDQASISCRSSQSLVHSNGNTYLHWYLQKPGQSPKVLIYKVSNRFSGVPDRFSGSGSGTDFTLKISRVEAEDLGVYFCSQSTHVPYTFGGGTKLEIK records Positive population, % of 10% or higher.
stdout: y

stdin: Test whether the binder LAb19301 (antibody, V domains shown, Mouse monoclonal antibody purified from hybridoma supernatant) VH: DVQLQESGPDLVKPSQSLSLTCTVTGYSITSGFSWHWIRQFPGHKLEWMGFMQYSGNTNYNPSLKSRISFTRDTSKNQFFLQLKSVTPEDTATYYCARREEGAWFAYWGQGTLVTVSA VL: DVVMTQTPLSLPVSLGDQASISCGSSQSLVHSNGNTYLHWYLQKPGQSPKLLIYKVSNRFSGVPDRFSGSGSGTDFTLKISRVEAEDLGVYFCSQSTHFPFTFGSGTKLEIK records Positive population, % of 10% or higher.
stdout: y
